# system_under_test: T1, TMEV 2A (Theiler's murine encephalitis virus …, UniProt P08545 923-1055)
# T1 sequence: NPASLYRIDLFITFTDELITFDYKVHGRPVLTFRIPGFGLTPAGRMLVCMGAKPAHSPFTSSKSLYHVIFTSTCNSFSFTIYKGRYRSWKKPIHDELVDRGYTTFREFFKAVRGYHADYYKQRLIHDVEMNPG
# test_protocol: EMSA; range given jointly for +1 and -1 bp; EMSA: 10 mM Tris-HCl pH 7.4, ~140 mM NaCl, 2 mM Mg acetate, 1 mM DTT, 5% glycerol, 50 nM RNA, 37 C; MST: 20 mM Tris-HCl pH 7.4, 400 mM NaCl, 1 mM MgCl2, 1 mM DTT, 0.05% Tween-20, 0.1 mg/ml tRNA, 22 C; smFRET: 10 mM Tris-HCl pH 7.4, 150 mM NaCl, 1 mM MgCl2, 1 mM DTT, 0.1 mg/ml BSA, ambient
# study_conditions: protein: recombinant; tags: His6-MBP, TEV-cleaved/removed; label: 5' Cy5 or AzDye647; 6 bp S2
pKd: −log10 of the molar value.
endpoint_label: pKd

Q) So what does the record say about pKd for CAAGGUGCGGUGCUACUAAAUCCCAGCACCCC (structured_RNA) [-1 bp stem 2] ?
A) ~6.35
